Cited source for all entries: PubChem BioAssay (EPA / NIEHS)

Biological target: Cellular tumor antigen p53 (Homo sapiens)
Experiment: TOX21_p53_BLA_p5_ratio: Tox21 HCT-116 p53 Agonism Beta-lactamase Assay, Ratio, Phase 5 (AID 2283599)
Results filed as inconclusive are left out. Activity calls are given as the source filed them. Rule for the calls: active = hit-call score of the fitted dose curve at least 0.9, where 1 is the maximum; inconclusive = response in the unintended direction; inactive = score below 0.9.
Possible outcomes: active, inactive

compound: CCCCCCCCCCCl
assayedTarget: Cellular tumor antigen p53 (Homo sapiens)
groupLabel: inactive
--
compound: O=Cc1ccccc1[N+](=O)[O-]
assayedTarget: Cellular tumor antigen p53 (Homo sapiens)
groupLabel: active
--
compound: Cn1nnc2c(C(N)=O)ncn2c1=O
assayedTarget: Cellular tumor antigen p53 (Homo sapiens)
groupLabel: inactive
--
compound: C1CCC2=NCCCN2CC1
assayedTarget: Cellular tumor antigen p53 (Homo sapiens)
groupLabel: inactive
--
compound: Cc1nc(Nc2ncc(C(=O)Nc3c(C)cccc3Cl)s2)cc(N2CCN(CCO)CC2)n1
assayedTarget: Cellular tumor antigen p53 (Homo sapiens)
groupLabel: active
--
compound: N#Cc1ccc(C(=O)O)cc1
assayedTarget: Cellular tumor antigen p53 (Homo sapiens)
groupLabel: inactive
--
compound: CC(O)[C@@H]1NC(=O)[C@H](CCCCN)NC(=O)[C@@H](Cc2c[nH]c3ccccc23)NC(=O)[C@H](Cc2ccccc2)NC(=O)[C@@H](NC(=O)[C@H](N)Cc2ccccc2)CSSC[C@@H](C(=O)N[C@H](CO)[C@@H](C)O)NC1=O (stereo not given in full)
assayedTarget: Cellular tumor antigen p53 (Homo sapiens)
groupLabel: inactive
--
compound: Cc1ccc(S(=O)(=O)NC(=O)NC2CCCCCCC2)cc1
assayedTarget: Cellular tumor antigen p53 (Homo sapiens)
groupLabel: inactive
--
compound: OCC(O)CS (stereo not given)
assayedTarget: Cellular tumor antigen p53 (Homo sapiens)
groupLabel: inactive
--
compound: CC(=O)c1sc(C)nc1C
assayedTarget: Cellular tumor antigen p53 (Homo sapiens)
groupLabel: inactive
--
compound: C[C@@H](O)[C@H]1C(=O)N2C(C(=O)O)=C(SCCN=CN)C[C@H]12
assayedTarget: Cellular tumor antigen p53 (Homo sapiens)
groupLabel: inactive
--
compound: Nc1ccc(N)c2ccccc12
assayedTarget: Cellular tumor antigen p53 (Homo sapiens)
groupLabel: active
--
compound: O=C1CCC(=O)N1CO
assayedTarget: Cellular tumor antigen p53 (Homo sapiens)
groupLabel: inactive
--
compound: Sc1nc2ccccc2s1
assayedTarget: Cellular tumor antigen p53 (Homo sapiens)
groupLabel: inactive
--
compound: CC(C)(C)C1(CCc2ccc(Cl)cc2)CO1 (stereo not given)
assayedTarget: Cellular tumor antigen p53 (Homo sapiens)
groupLabel: inactive
--
compound: Oc1ccccc1C=NCc1ccccc1
assayedTarget: Cellular tumor antigen p53 (Homo sapiens)
groupLabel: inactive
--
compound: CCOC(=O)[C@H](CCc1ccccc1)N[C@H]1CCCN2CCC[C@@H](C(=O)O)N2C1=O
assayedTarget: Cellular tumor antigen p53 (Homo sapiens)
groupLabel: inactive
--
compound: CC1CC(OC(=O)C(O)c2ccccc2)CC(C)(C)C1 (stereo not given)
assayedTarget: Cellular tumor antigen p53 (Homo sapiens)
groupLabel: inactive
--
compound: Cc1ccc(C(=O)O)cc1
assayedTarget: Cellular tumor antigen p53 (Homo sapiens)
groupLabel: inactive
--
compound: CCN(CC)CCOc1ccc(-c2nc3cc(Cl)ccc3s2)cc1
assayedTarget: Cellular tumor antigen p53 (Homo sapiens)
groupLabel: inactive
--
compound: CC(=O)c1ccc(OCC(=O)N2CCCCC2)cc1
assayedTarget: Cellular tumor antigen p53 (Homo sapiens)
groupLabel: inactive
--
compound: C=C1c2cccc(O)c2C(O)=C2C(=O)[C@]3(O)C(O)=C(C(N)=O)C(=O)[C@@H](N(C)C)[C@@H]3[C@@H](O)[C@H]12
assayedTarget: Cellular tumor antigen p53 (Homo sapiens)
groupLabel: inactive
--
compound: OC[C@@H](O)[C@H](O)[C@H](O)[C@@H](O)CO
assayedTarget: Cellular tumor antigen p53 (Homo sapiens)
groupLabel: inactive
--
compound: O=C(c1ccccc1)c1cccc(O)c1
assayedTarget: Cellular tumor antigen p53 (Homo sapiens)
groupLabel: inactive
--
compound: CC(C)[C@@H]1CC[C@@H](C)C[C@H]1OC(=O)c1ccccc1O
assayedTarget: Cellular tumor antigen p53 (Homo sapiens)
groupLabel: inactive

----------
Target: Peroxisome proliferator-activated receptor gamma (Homo sapiens)
Experiment: ATG_PPARg_TRANS: Attagene TRANS-FACTORIAL HepG2 Assay for human Peroxisome Proliferator-activated Receptor-gamma (PPARg) (AID 2283007)
Results filed as inconclusive are left out. The source made the active and inactive calls. How the source made its calls: active means hit-call score of the fitted dose curve at least 0.9, where 1 is the maximum; inconclusive means response in the unintended direction; inactive means score below 0.9.
Classes used: active, inactive

compound: Oc1ccc(Oc2ccccc2)cc1
groupLabel: active

compound: CCCCOC(=O)COc1ccc(Cl)cc1Cl
groupLabel: inactive

compound: C=C(C)C(=O)OCCCCCC
groupLabel: inactive

compound: CCCCNC(N)=O
groupLabel: inactive

compound: Cc1ccnc(N)c1
groupLabel: inactive

compound: Nc1nnc(-c2ccc([N+](=O)[O-])o2)o1
groupLabel: inactive

compound: CC1(C)S[C@@H]2[C@H](NC(=O)[C@H](N)c3ccccc3)C(=O)N2[C@H]1C(=O)O
groupLabel: inactive

compound: O=[N+]([O-])c1ccc2nc[nH]c2c1
groupLabel: inactive

compound: CCCCCCC1CCC(=O)O1 (stereo unspecified)
groupLabel: inactive

compound: C[Si](C)(C)O[Si](C)(C)O[Si](C)(C)C
groupLabel: inactive

compound: CC/C=C\CC1=C(C)CCC1=O
groupLabel: active

compound: CCCCCC[C@@H](O)C/C=C\CCCCCCCC(=O)O
groupLabel: active

compound: Cc1cccnc1
groupLabel: inactive

compound: CCCC(=O)OC
groupLabel: inactive

compound: Oc1ccc(Cl)cc1C1CCCC1
groupLabel: active

compound: CCCCCC1CCCC(=O)O1 (stereo unspecified)
groupLabel: inactive

compound: O=C(Oc1ccccc1)c1ccccc1
groupLabel: inactive

compound: CCOc1ccc2c(c1)C(C)CC(C)(C)N2 (stereo unspecified)
groupLabel: inactive

compound: CCCCCCCCCCCCCCCCCC[N+](C)(C)C
groupLabel: active

compound: CC1=C(CC(=O)O)c2cc(F)ccc2/C1=C\c1ccc(S(C)=O)cc1 (stereo unspecified)
groupLabel: active

compound: Clc1ccc(Sc2cc(Cl)c(Cl)cc2Cl)cc1
groupLabel: inactive

compound: O=C(OCc1ccccc1)c1ccccc1
groupLabel: inactive

compound: O=C(c1ccccc1)c1ccccc1O
groupLabel: inactive

compound: c1cc(N(CC2CO2)CC2CO2)ccc1Cc1ccc(N(CC2CO2)CC2CO2)cc1 (stereo unspecified)
groupLabel: inactive

compound: CCCC(=O)OC/C=C(\C)CCC=C(C)C
groupLabel: inactive

compound: CN(C)CCCN1c2ccccc2CCc2ccc(Cl)cc21
groupLabel: inactive

compound: O=C(C1CCCCC1)N1CC(=O)N2CCc3ccccc3C2C1 (stereo unspecified)
groupLabel: inactive

compound: CC(C)n1c(/C=C/[C@@H](O)C[C@@H](O)CC(=O)O)c(-c2ccc(F)cc2)c2ccccc21
groupLabel: active

compound: CCCc1c(OCCCCc2nn[nH]n2)ccc(C(C)=O)c1O
groupLabel: active

compound: O=S(=O)(O)c1cccc2ccccc12
groupLabel: inactive

compound: Cc1cc(C)c(S(=O)(=O)O)cc1N=Nc1cc(S(=O)(=O)O)c2ccccc2c1O
groupLabel: inactive

----------
Experiment: ATG_XTT_Cytotoxicity: Cytotoxicity Assessment in the Attagene TRANS-FACTORIAL HepG2 Assay (AID 2283584)
Inconclusive results are not listed. Active and inactive are the calls of the source. The calls were made as follows: active = hit-call score of the fitted dose curve at least 0.9, where 1 is the maximum; inconclusive = response in the unintended direction; inactive = score below 0.9.
measuredAttribute: outcome

compound: c1cc(N(CC2CO2)CC2CO2)ccc1Cc1ccc(N(CC2CO2)CC2CO2)cc1 (configuration not stated)
measuredAttribute: outcome
result: inactive
//
compound: CCCC(=O)OC/C=C(\C)CCC=C(C)C
measuredAttribute: outcome
result: inactive
//
compound: OCCc1ccccn1
measuredAttribute: outcome
result: inactive
//
compound: O=C1NC(=O)C2CC=CCC12 (configuration not stated)
measuredAttribute: outcome
result: inactive
//
compound: C=CCOCC(CC)(CO)COCC=C
measuredAttribute: outcome
result: inactive
//
compound: Oc1ccc(Cl)cc1C1CCCC1
measuredAttribute: outcome
result: inactive
//
compound: C[C@H]1C[C@H]2[C@@H]3CCC4=CC(=O)C=C[C@]4(C)[C@@]3(F)[C@@H](O)C[C@]2(C)[C@@]1(O)C(=O)CO
measuredAttribute: outcome
result: inactive
//
compound: Cc1cc(C)c(S(=O)(=O)O)cc1N=Nc1cc(S(=O)(=O)O)c2ccccc2c1O
measuredAttribute: outcome
result: inactive
//
compound: NC(=O)c1ccc(N)cc1
measuredAttribute: outcome
result: inactive
//
compound: CC[N+](CC)(CC(=O)Nc1c(C)cccc1C)Cc1ccccc1 (tested in a mixture with another compound)
measuredAttribute: outcome
result: inactive
//
compound: [O-][n+]1ccc(Cl)cc1
measuredAttribute: outcome
result: inactive
//
compound: Cc1cc(O)cc(C)c1Cl
measuredAttribute: outcome
result: inactive

----------
Assay: TOX21_p53_BLA_p5_viability: Viability Assessment in the Tox21 HCT-116 p53 Agonism Beta-lactamase Assay, Phase 5 (AID 2283600)
Results filed as inconclusive are left out. Activity calls are given as the source filed them. The calls were made as follows: active = hit-call score of the fitted dose curve at least 0.9, where 1 is the maximum; inconclusive = response in the unintended direction; inactive = score below 0.9.
Outcomes: active, inactive

molecule: CCC(C)(C)C(=O)O
groupLabel: inactive
//
molecule: N#C[C@@H]1C[C@@H]2C[C@@H]2N1C(=O)[C@@H](N)C12CC3CC(CC(O)(C3)C1)C2
groupLabel: inactive
//
molecule: Cc1ccc([N+](=O)[O-])cc1Cl
groupLabel: inactive
//
molecule: COc1cc2c(cc1N)oc1ccccc12
groupLabel: inactive
//
molecule: CCN(CC)c1ccc(C(=C2C=CC(=[N+](CC)CC)C=C2)c2ccccc2)cc1
groupLabel: active
//
molecule: Cc1cccc(Nc2ccncc2S(=O)(=O)NC(=O)NC(C)C)c1
groupLabel: inactive
//
molecule: Oc1ccc2c(c1)OCO2
groupLabel: inactive
//
molecule: Nc1cc(S(=O)(=O)O)cc2cc(S(=O)(=O)O)cc(O)c12
groupLabel: inactive
//
molecule: O=C(O)COc1ccc2ccccc2c1
groupLabel: inactive
//
molecule: COCC1=C(C(=O)OC(C)OC(=O)OC(C)C)N2C(=O)[C@@H](NC(=O)/C(=N\OC)c3csc(N)n3)[C@H]2SC1 (some centres not stated)
groupLabel: inactive
//
molecule: O=C(O)CCCCCC(=O)O
groupLabel: inactive
//
molecule: c1ccc(OCc2ccc(CCCN3CCOCC3)cc2)cc1
groupLabel: inactive
